# target: Calmodulin-1 (Homo sapiens)
# assay details: CALM1 binders on microarrays, EGTA buffer, profiling panel, biochemical, small-molecule microarray, Cy5-labelled CALM1 (AID 1111);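 further: labelled calmodulin applied in Tris saline Tween buffer holding calcium plus EGTA and DTT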
# condition: Cy5-CALM1 binding fluorescence, higher = more signal
Param threshold (0.2) applies to composite z-score; output Condition met when value >= threshold, Condition not met when value < threshold.

Below are worked cases with known answers.
| compound | class label |
| --- | --- |
| COCCOC(=O)N1C(=O)[C@@]2(c3cc(C#CCNC(N)=O)ccc31)[C@H](c1ccc(OCCO)cc1)N1[C@H](c3ccccc3)[C@H](c3ccccc3)OC(=O)[C@H]1[C@@H]2C(=O)N1CCc2cc(OC)c(OC)cc2C1 | Condition met |
| O=C1OCCC=C[C@H]2OC34C=CCN(Cc5ccccc5)C(=O)[C@H]3N(CCCO)C(=O)[C@@H]4C12 (stereo partly specified) | Condition not met |
| COCCOC(=O)N1C(=O)[C@@]2(c3cc(C#CC4=CCCCC4)ccc31)[C@H](C(=O)NC[C@H](O)c1ccccc1)[C@H]1C(=O)O[C@H](c3ccccc3)[C@H](c3ccccc3)N1[C@@H]2c1ccc(O)cc1 | Condition met |
| Cc1c(NC(=O)CC#N)c(=O)n(-c2ccccc2)n1C | Condition not met |
| O=C1O[C@H](c2ccccc2)[C@H](c2ccccc2)N2[C@H]1[C@@H](C(=O)NC[C@H](O)c1ccccc1)[C@]1(C(=O)Nc3ccc(C#CCCO)cc31)[C@H]2c1ccc(O)cc1 | Condition not met |

Please tell me: is the compound COc1ccc(C(O)C2C=CC3C(=O)N(c4ccccc4)C(=O)C3N2Nc2ccc([N+](=O)[O-])cc2)cc1OCc1ccccc1 (stereo unspecified) at or over 0.2 in terms of composite z-score?
Condition met

###

Recorded composite z-score, one value per entry.
# assay details: small-molecule microarray binders of probe aLefty2, primary screen, biochemical, biotinylated probe, 635/667 nm fluorescence (AID 1094);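 further: score merges spot fluorescence near 667 nm with spot signal-to-noise ratio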
# condition: higher = more signal
Reply with the value as a number alone.

Please review the following examples before continuing.
| compound | composite z-score |
| --- | --- |
| Cc1ccccc1C(O)C1C=CC2C(=O)N(C)C(=O)C2N1N1CCCCC1 (centres undefined) | 0.331 |
| O=C1OCC=C[C@H]2OC34C=CCN(c5ccc6ccccc6c5)C(=O)[C@H]3N(CCCO)C(=O)[C@@H]4[C@@H]12 (some centres undefined) | 0.0061 |

Consider COCCOC(=O)N1C(=O)[C@@]2(c3cc(C#CC4=CCCCC4)ccc31)[C@H](C(=O)NC[C@H](O)c1ccccc1)[C@H]1C(=O)O[C@H](c3ccccc3)[C@H](c3ccccc3)N1[C@@H]2c1ccc(O)cc1 . Its measured composite z-score is 0.0723

Sure, the documented composite z-score for COC(=O)[C@@]1(Cc2ccccc2)[C@H]2c3cc(C(=O)N4CCCC4)n(Cc4ccc(C)o4)c3C[C@H]2CN1C(=O)c1ccccc1 is -0.0127

###

# target: Fibroblast growth factor 2 (Homo sapiens) (UniProt P09038)
# Sequence (P09038 whole entry, looked up): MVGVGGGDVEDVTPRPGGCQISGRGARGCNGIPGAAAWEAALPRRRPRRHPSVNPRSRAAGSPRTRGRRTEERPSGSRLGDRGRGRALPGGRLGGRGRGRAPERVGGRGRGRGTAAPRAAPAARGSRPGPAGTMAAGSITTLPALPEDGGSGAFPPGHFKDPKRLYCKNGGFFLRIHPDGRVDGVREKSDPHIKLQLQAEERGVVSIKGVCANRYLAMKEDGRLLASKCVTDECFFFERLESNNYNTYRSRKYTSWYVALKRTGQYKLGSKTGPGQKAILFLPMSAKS
# assay details: FGF2 binders on small-molecule microarrays, primary screen, biochemical, small-molecule microarray, 635/667 nm fluorescence (AID 1133)
# condition: small-molecule microarray binding, FGF2, fluorescence 635/667; higher = more signal
Below, each entry is listed with its recorded composite z-score.
// return a plain number; no unit text

Below, 5 compounds whose answers are already recorded.
| compound | composite z-score |
| --- | --- |
| CC(C)(C)N1CC=CC23O[C@@H]4/C=C\CCCOC(=O)C4[C@H]2C(=O)N(CCO)[C@@H]3C1=O (some centres undefined) | -0.57 |
| O=C1OCC=C[C@H]2OC34C=CCN(c5ccc6ccccc6c5)C(=O)[C@H]3N(CCCO)C(=O)[C@@H]4[C@@H]12 (some centres undefined) | -0.989 |
| COc1ccc(C(=O)Nc2cccc(CN3C(=O)[C@@]4(O[C@@H](CCn5cc(CCO)nn5)[C@H]([Si](C)(C)c5ccc(OC)cc5)[C@H]4C)c4ccccc43)c2)cc1 | 1.51 |
| C=CCC(OC(C)=O)[C@@H]1[C@@H](N(Cc2cc3ccccc3o2)C(=O)c2ccc(C)cc2)c2cc(OCCCO)ccc2N1C(=O)c1ccc2ccccc2c1 (some centres undefined) | 0.286 |
| C=CCOC(=O)[C@@H]1[C@H]2C(=O)O[C@H](c3ccccc3)[C@H](c3ccccc3)N2[C@H](c2ccc(OCCOC(=O)[C@@H]3C[C@@H]4C(=O)N[C@@H](Cc5ccccc5)C(=O)N4[C@@H]3c3cccc(OCCO)c3)cc2)[C@@]12C(=O)Nc1ccc(I)cc12 | 1.55 |

// composite z-score lookup, compound = C=CCNC(=O)[C@@H]1[C@H]2C(=O)O[C@H](c3ccccc3)[C@H](c3ccccc3)N2[C@H](c2ccccc2OCCO)[C@@]12C(=O)Nc1ccc(C#CC3=CCCCC3)cc12 , result: 1.02

The recorded composite z-score for [N-]=[N+]=Nc1ccccc1[C@H]1OC(c2ccc(OCCCO)cc2)=N[C@@]1(CCS(=O)(=O)c1ccccc1)C(=O)O is 0.174

The compound listed as COc1ccc([Si](C)(C)[C@@H]2[C@@H](CC(=O)N(CCO)Cc3ccccc3)O[C@]3(C(=O)N(C)c4ccccc43)[C@H]2C)cc1 shows composite z-score equal to 1.4

The reported composite z-score of the compound CCOC(=O)C1=C[C@@H](C(C)C)N(S(=O)(=O)c2ccc(C)cc2)[C@H]1c1ccc(C(C)C)cc1 was -0.067

The compound O=C/C=C/c1ccc(Cl)cc1 showed composite z-score equal to -0.236
